Cited source for all entries: patent US11034672B1

Target: EGFR V3 (Homo sapiens, UniProt P00533, DELINS30-297G)
Construct: expressed in transfected cells; host or cells: BaF3 (murine pro-B), retroviral pMXs-IRES-Blasticidin
Sequence (P00533 with tags, fused parts or gaps DELINS30-297G): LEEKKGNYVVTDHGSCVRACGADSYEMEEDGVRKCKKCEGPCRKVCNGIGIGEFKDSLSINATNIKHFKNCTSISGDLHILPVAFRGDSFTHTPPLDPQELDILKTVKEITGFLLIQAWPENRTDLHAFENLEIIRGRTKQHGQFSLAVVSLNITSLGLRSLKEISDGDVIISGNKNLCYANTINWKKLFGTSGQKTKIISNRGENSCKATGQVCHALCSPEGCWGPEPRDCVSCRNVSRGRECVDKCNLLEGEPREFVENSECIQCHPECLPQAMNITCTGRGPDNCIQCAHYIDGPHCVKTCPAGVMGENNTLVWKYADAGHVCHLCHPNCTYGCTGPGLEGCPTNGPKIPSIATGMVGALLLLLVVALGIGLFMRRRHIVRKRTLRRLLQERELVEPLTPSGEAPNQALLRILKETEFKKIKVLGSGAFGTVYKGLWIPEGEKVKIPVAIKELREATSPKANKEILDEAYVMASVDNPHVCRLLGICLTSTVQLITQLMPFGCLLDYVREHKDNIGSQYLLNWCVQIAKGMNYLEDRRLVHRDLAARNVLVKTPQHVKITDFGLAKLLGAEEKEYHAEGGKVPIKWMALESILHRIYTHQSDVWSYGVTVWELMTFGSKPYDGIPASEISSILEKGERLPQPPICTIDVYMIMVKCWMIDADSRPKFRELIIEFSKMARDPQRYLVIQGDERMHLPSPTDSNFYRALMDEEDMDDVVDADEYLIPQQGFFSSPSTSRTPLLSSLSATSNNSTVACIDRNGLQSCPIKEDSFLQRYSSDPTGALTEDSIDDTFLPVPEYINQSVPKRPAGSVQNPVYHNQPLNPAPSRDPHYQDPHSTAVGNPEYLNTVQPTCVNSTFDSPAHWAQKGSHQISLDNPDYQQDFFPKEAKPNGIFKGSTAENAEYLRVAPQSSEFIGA
Experiment: Activity for inhibiting EGFR (Table A), EGFR V3 (EGFR-Viii)
Assay type: cell-based
Details: read-out: EGFR V3, potency code (IC50)
measured attribute: IC50

Task: What value of measured IC50 is listed for CC#CC(=O)Nc1cc2c(Nc3ccc(OCc4ccccn4)c(Cl)c3)ncnc2cc1C#CC1[C@H]2CN(C)C[C@@H]12 (stereo partly shown) ?
Output: 0.05 to 0.1 µM

Task: What does the data say about its IC50? Entry: "C=CC(=O)Nc1cc2c(Nc3cc(Cl)c(OCc4cccc(F)c4)cc3F)ncnc2cc1O[C@@H]1CCN(C)C1"
Output: 0.1 to 0.2 µM

Task: Item C=CC(=O)Nc1cc2c(Nc3ccc(OCc4ccccn4)c(Cl)c3)ncnc2cc1C#CC1CCCN1 (stereo not shown) has what recorded IC50?
Output: 0.05 to 0.1 µM

Task: I would be grateful if you could share the reported IC50 for C=CC(=O)Nc1cc2c(Nc3ccc(OCc4ccccn4)c(Cl)c3)ncnc2cc1N1CC2CCN(C)C2C1 (stereo not shown) .
Output: 0.1 to 0.2 µM
